- Test system: 556581-035-R-J1-PDC complex spheroid viability;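 also: spheroids exposed to agents for seven days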
- Protocol summary: Anticancer human tumor 556581-035-R-J1-PDC patient-derived ovarian carcinoma cell line growth inhibition; active = viability on the fitted dose curve at most 10% of control; inactive = the rest
- Test parameters: second compound 0.1 µM; first compound 0.003 µM
Pick one and only one: t = active, f = inactive

CCc1c2c(nc3ccc(O)cc13)-c1cc3c(c(=O)n1C2)COC(=O)[C@]3(O)CC + NC1CC1c1ccc(-c2cccc(O)c2)cc1; t
Nc1ncn(C2CC(O)C(CO)S2)c(=O)n1 (stereo unspecified) + NC1CCC(NC2CC2c2ccccc2)CC1; f
CCc1c2c(nc3ccc(O)cc13)-c1cc3c(c(=O)n1C2)COC(=O)[C@]3(O)CC + NC1CCC(NC2CC2c2ccccc2)CC1; t
Nc1ccn(C2OC(CO)C(O)C2(F)F)c(=O)n1 (stereo unspecified) + NC1CC1c1ccc(-c2cccc(O)c2)cc1; f
Nc1ncn(C2CC(O)C(CO)S2)c(=O)n1 (stereo unspecified) + NC1CC1c1ccc(-c2cccc(O)c2)cc1; f

What outcome does the record of this test show for Nc1ccn(C2OC(CO)C(O)C2(F)F)c(=O)n1 (stereo unspecified) + NC1CCC(NC2CC2c2ccccc2)CC1 ?
f
